target: human CDK9/CyclinT kinase complex (Homo sapiens, UniProt P50750); assay: In vitro CDK9/CyclinT assay (IMAP fluorescence polarization kinase assay); conditions: 5 nM CDK9/CyclinT, 400 nM TAMRA-Rbtide, 12 μM ATP, 1 hour at room temperature; read-out: CDK9 inhibitory range
Sequence (P50750 whole entry): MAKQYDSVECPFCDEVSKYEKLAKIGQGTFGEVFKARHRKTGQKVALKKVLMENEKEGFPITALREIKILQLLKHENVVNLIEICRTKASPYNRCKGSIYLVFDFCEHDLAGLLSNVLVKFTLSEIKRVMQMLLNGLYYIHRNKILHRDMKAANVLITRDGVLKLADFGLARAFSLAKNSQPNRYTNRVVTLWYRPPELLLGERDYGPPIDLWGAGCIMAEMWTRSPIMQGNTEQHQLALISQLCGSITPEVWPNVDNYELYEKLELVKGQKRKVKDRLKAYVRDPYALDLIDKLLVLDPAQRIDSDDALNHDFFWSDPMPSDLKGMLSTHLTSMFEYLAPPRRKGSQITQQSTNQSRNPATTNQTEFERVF
Sequence (O60563 whole entry partner): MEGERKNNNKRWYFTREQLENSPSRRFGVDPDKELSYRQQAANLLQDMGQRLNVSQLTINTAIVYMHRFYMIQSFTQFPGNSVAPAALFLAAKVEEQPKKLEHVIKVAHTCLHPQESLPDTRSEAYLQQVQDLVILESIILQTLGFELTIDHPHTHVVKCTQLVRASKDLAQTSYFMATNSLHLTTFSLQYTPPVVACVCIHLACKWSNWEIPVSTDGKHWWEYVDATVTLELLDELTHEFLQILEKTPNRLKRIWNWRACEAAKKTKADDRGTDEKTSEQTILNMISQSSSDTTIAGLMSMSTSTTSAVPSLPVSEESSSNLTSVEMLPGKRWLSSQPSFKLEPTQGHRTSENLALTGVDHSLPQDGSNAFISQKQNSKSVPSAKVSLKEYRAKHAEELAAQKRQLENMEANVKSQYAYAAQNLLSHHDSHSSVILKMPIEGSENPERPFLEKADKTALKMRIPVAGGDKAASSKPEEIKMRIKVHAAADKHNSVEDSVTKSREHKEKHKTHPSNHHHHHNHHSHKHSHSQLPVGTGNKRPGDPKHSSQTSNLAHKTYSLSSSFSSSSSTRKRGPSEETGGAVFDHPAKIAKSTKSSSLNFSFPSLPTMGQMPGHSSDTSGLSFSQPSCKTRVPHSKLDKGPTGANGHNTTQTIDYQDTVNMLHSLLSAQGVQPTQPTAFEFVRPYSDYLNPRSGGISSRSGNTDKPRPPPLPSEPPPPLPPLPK
pIC50: −log10 of the molar value.
ASSAY_READOUT: pIC50

Enquiry: Look at this molecule and give its reported pIC50. CS(=O)(=O)NCc1cccc(Nc2cc(Cl)ncn2)c1
Return: < 5.00

Enquiry: Look at this molecule and give its reported pIC50. COc1cccc(-c2cc(Nc3ccc(CNS(C)(=O)=O)cc3)ncn2)c1OC
Return: > 6.00

Enquiry: Look at this molecule and give its reported pIC50. CC(C)COc1ccccc1-c1cc(Nc2ccc(CNS(C)(=O)=O)cc2)ncn1
Return: > 6.00

Enquiry: Look at this molecule and give its reported pIC50. CS(=O)(=O)NCc1ccc(Nc2cc(-c3ccccc3OCc3ccc(F)cc3)ncn2)cc1
Return: > 6.00

Enquiry: Look at this molecule and give its reported pIC50. CCc1ccccc1-c1cc(Nc2cccc(CNS(C)(=O)=O)c2)ncn1
Return: > 6.00

Enquiry: Look at this molecule and give its reported pIC50. COc1cccc(-c2cc(Nc3cccc(CNS(C)(=O)=O)c3)ncn2)c1OC
Return: > 6.00

Enquiry: Look at this molecule and give its reported pIC50. CS(=O)(=O)NCc1ccc(Nc2cc(-c3ccccc3OCc3ccccc3)ncn2)cc1
Return: > 7.00

====

Provide the recorded pIC50 for the entries that follow.
target: human CDK9/CyclinT kinase complex (Homo sapiens, UniProt P50750); assay: In vitro CDK9/CyclinT assay (IMAP fluorescence polarization kinase assay); details: 5 nM CDK9/CyclinT, 400 nM TAMRA-Rbtide, 12 μM ATP, 1 hour at room temperature; read-out: CDK9 inhibitory range
pIC50: −log10 of the molar value.

Enquiry: Look at this compound and give its reported pIC50. Clc1cc(Nc2cccc(Cn3ccc4ccccc43)c2)ncn1 [Example 90]
Return: < 5.00

Enquiry: Look at this compound and give its reported pIC50. CS(=O)(=O)NCc1ccc(Nc2cc(-c3cn[nH]c3)ncn2)cc1 [Example 58]
Return: < 5.00

Enquiry: Look at this compound and give its reported pIC50. CCCOc1ccccc1-c1cc(Nc2ccc(CNS(C)(=O)=O)cc2)ncn1 [Example 53]
Return: > 7.00

Enquiry: Look at this compound and give its reported pIC50. COc1cccc(F)c1-c1cc(Nc2cccc(Cn3cnc4ccccc43)c2)ncn1 [Example 79]
Return: > 7.00

Enquiry: Look at this compound and give its reported pIC50. CS(=O)(=O)NCc1ccc(Nc2cc(-c3ccc(F)cc3F)ncn2)cc1 [Example 42]
Return: < 5.00

Enquiry: Look at this compound and give its reported pIC50. COc1ccc(F)cc1-c1cc(Nc2cccc(CNS(C)(=O)=O)c2)ncn1 [Example 9]
Return: > 6.00

Enquiry: Look at this compound and give its reported pIC50. COc1ccccc1-c1cc(Nc2cccc(CNS(=O)(=O)Cc3ccccc3)c2)ncn1 [Example 74]
Return: > 6.00

Enquiry: Look at this compound and give its reported pIC50. CS(=O)(=O)NCc1ccc(Nc2cc(-c3ccccc3F)ncn2)cc1 [Example 44]
Return: > 5.00

Enquiry: Look at this compound and give its reported pIC50. Oc1ccc(-c2cc(Nc3cccc(CNc4nc5ccccc5[nH]4)c3)ncn2)cc1 [Example 78]
Return: > 6.00
